B1: Osa-1-4 twister ribozyme (parent)
chain: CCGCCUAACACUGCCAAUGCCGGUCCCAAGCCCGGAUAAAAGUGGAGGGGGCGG

- Variants of: B1
- protocol.text: self-cleavage, relative activity (ratio to wild type); higher = more cleavage; co-transcriptional
Could you please report measured self-cleavage for the items listed next?
Just the number, please, no unit attached.

q: Quick one: self-cleavage of A10U C33U ?
a: 0.04

q: Quick one: self-cleavage of G48C G51C ?
a: 0.04

q: Quick one: self-cleavage of G30C U43C ?
a: 0.04

q: Quick one: self-cleavage of C52A G42C ?
a: 0.16

q: Quick one: self-cleavage of A28G C52G ?
a: 0.32

q: Quick one: self-cleavage of C25A G23A ?
a: 0.06

q: Quick one: self-cleavage of A17C G44C ?
a: 0.72

q: Quick one: self-cleavage of G22C U43A ?
a: 0.04

q: Quick one: self-cleavage of G50C G53A ?
a: 0.11

q: Quick one: self-cleavage of A16U U37A ?
a: 0.83

q: Quick one: self-cleavage of A10G U12C ?
a: 0.12
